biological target: HCV NS5B RdRp genotype 1b (Hepatitis C virus genotype 1b, UniProt Q9WMX2); construct: The protein was expressed with an 18 amino acid C-terminal truncation to enhance the solubility; made in house; host or cells: E. coli BL21(DE3), pET21a vector; assay: Standard HCV NS5B RdRp enzyme assay; type: biochemical; conditions: Table 1b; HCV NS5B RdRp genotype 1b; read-out: IC50
Sequence (Q9WMX2 2420-2992): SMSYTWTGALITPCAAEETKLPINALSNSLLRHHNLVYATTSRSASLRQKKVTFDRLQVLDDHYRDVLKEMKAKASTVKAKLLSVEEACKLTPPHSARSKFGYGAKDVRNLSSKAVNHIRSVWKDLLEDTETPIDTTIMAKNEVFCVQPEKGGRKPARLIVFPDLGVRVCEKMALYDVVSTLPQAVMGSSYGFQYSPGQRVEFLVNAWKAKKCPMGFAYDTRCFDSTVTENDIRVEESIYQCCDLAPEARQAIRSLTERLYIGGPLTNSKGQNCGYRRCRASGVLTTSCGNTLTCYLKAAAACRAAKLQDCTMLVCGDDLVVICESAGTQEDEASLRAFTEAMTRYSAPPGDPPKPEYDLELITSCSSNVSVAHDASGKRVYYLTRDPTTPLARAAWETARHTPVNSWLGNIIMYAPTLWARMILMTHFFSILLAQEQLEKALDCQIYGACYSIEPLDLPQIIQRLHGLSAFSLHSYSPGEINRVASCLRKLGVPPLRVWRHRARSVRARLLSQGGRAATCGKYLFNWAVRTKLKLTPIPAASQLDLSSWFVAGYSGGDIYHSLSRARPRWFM
pIC50: −log10 of the molar value.
recorded.metric: pIC50

INSERT INTO assay_data (compound, recorded_metric, result) VALUES
  ('CNC(=O)c1c(-c2ccc(F)cc2)oc2ccc(-c3cc(OCCc4ccncc4)cc(C(=O)NCC(C)C)c3)cc12', 'pIC50', '> 6.60'),
  ('CNC(=O)c1c(-c2ccc(F)cc2)oc2ccc(-c3cc(C(=O)NC4(c5ccccn5)CC4)ccc3C)cc12 [drawing 425]', 'pIC50', '> 6.60'),
  ('CNC(=O)c1c(-c2ccc(F)cc2)oc2ccc(-c3cc(C(=O)NCC(C)C)ccc3OCCN3CCCCC3)cc12', 'pIC50', '6.00 to 6.60'),
  ('CNC(=O)c1c(-c2ccc(F)cc2)oc2ccc(-c3cccc(-c4nc(-c5ccccc5)no4)c3)cc12', 'pIC50', '< 5.00'),
  ('CNC(=O)c1c(-c2ccc(F)cc2)oc2ccc(-c3cc(C(=O)NC4(c5nc(C)no5)CC4)c(OC)cc3C)cc12 [drawing 500]', 'pIC50', '> 6.60'),
  ('CNC(=O)c1c(-c2ccc(F)cc2)oc2ccc(-c3cc(OCCn4cncn4)cc(C(=O)NCC(C)C)c3)cc12', 'pIC50', '6.00 to 6.60'),
  ('CNC(=O)c1c(-c2ccc(F)cc2)oc2ccc(-c3cc(C(=O)NC4(c5ccccn5)CC4)cc(O)c3C)cc12', 'pIC50', '> 6.60'),
  ('CNC(=O)c1c(-c2ccc(F)cc2)oc2ccc(-c3cc(C(=O)NCC(C)C)ccc3OCCCN)cc12', 'pIC50', '> 6.60'),
  ('CNC(=O)c1c(-c2ccc(F)cc2)oc2ccc(-c3cc(OCCc4cccnc4)cc(C(=O)NCC(C)C)c3)cc12', 'pIC50', '< 5.00'),
  ('CNC(=O)c1c(-c2ccc(F)cc2)oc2ccc(-c3cc(C(=O)NC4(c5cc(C)on5)CC4)c(OC)cc3C)cc12', 'pIC50', '> 6.60'),
  ('CNC(=O)c1c(-c2ccc(F)cc2)oc2ccc(-c3ccc(-c4ccccc4NC(C)=O)c(C(=O)NCC(C)C)c3)cc12', 'pIC50', '6.00 to 6.60'),
  ('CNC(=O)c1c(-c2ccc(F)cc2)oc2ccc(-c3cc(C(=O)NC4(c5nnn[nH]5)CC4)ccc3C)cc12', 'pIC50', '> 6.60');

The measured values listed here are drawn from patent US8309558B2.
